Molecular target: T1, cynoNectin4 antigen (cynomolgus (cyno), UniProt A0A2K5WES1 32-349)
T1 construct: construct not described; also called cynomolgus (cyno) Nectin-4
T1 sequence: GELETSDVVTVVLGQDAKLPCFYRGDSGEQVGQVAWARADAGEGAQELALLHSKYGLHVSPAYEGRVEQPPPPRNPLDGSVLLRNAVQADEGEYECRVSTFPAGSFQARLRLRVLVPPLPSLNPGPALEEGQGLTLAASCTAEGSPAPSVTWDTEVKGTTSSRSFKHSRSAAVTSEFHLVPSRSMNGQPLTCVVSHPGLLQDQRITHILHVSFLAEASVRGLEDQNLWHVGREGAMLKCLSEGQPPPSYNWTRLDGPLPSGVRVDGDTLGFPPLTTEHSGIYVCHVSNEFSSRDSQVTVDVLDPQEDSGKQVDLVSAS
Assay: ELISA, coated antigen, PSB pH 6.0
ASSAY READOUT: EC50 (µg/mL)
Report as a plain number; the unit µg/mL is understood.

Reported EC50 for BAP-143-06-33-03 (antibody, V domains shown, Used as a conjugate with a linker payload (CAB ADC)) VH: QVQLVQSGAEVKKPGASVKVSCKASGFTFSSYNMNWVRQARGQRLEWIGYISSSSSTIYYADSVKGRFTISRDNSKNTLYLQMNSLRAEDTAVYYCARAYYYGMDKWGQGTLVTVSS VL: DIQMTQSPSSVSASVGDRVTITCRASQGISGWLAWYQQKPGKAPKFLIYAASTLQSGVPSRFSGSGSGTDFTLTISSLQPEDFATYYCQQANSEPPTFGGGTKVEIK : what is it?
0.0395
